Target Or System: T1, human GFRα3 expressed with a C-terminal myc-myc-hexahistidine tag (human, UniProt O60609 32-374, biotinylated (sites not given) in ELISA format 2 and in the Octet cross-competition; not in SPR)
T1 construct: also called hGFRα3-mmh; hGFRα3-mmH
T1 sequence (O60609 other isoform, or with tags, fused parts or gaps limits assumed): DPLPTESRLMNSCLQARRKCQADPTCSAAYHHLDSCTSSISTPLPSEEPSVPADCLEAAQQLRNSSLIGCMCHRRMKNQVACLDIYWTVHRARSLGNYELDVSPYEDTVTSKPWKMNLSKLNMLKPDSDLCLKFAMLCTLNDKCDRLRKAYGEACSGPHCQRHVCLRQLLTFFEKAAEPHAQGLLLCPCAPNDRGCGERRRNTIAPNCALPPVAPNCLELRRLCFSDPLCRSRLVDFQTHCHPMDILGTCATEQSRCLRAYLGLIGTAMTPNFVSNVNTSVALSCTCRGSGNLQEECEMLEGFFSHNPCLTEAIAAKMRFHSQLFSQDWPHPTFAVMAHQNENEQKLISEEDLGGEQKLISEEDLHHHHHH
Measurement Protocol: SPR, Ab captured, 37C
Recorded Metric: Kd (nM)
Dear colleague, please return just the value in nM, with no unit written.

// worked examples, Kd included
binder="H4H2354S (antibody, human IgG4, V domains shown, human IgG4 Fc (H4H); also called H4H2354S-1) VH: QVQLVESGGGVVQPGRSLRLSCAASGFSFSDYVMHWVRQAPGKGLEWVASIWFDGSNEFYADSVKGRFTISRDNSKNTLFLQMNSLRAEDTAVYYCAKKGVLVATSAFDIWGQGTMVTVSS VL: DIQLTQSPSSLSASVGDRVTITCRASQSINNYLNWYHQKPGKAPKLLIYAASSLQSGVPSRFSGSGSGTDYTLTISSLQPEDFGNYYCQQSYRTSMYTFGQGTKVEIK" unit_of_measure=nM numeric_result=2.31
binder="H4H2364S (antibody, human IgG4, V domains shown, human IgG4 Fc (H4H)) VH: EVQLVESGGGLEQPGGSLRLSCAASGFTFSSYVMSWVRQVPGKGLEWVSVISGSGGSTYYADSVKGRFTISRDNSKNTLYLQMNSLRAEDTAVYYCAKPSSYSSSNFHYGMDVWGQGTTVTVSS VL: DIQMTQSPYSVSASVGDRVTITCRASQGISSWLAWYQQKPGRAPKLLIYAASSLQSGVPSRFSGSGSGTDFTLTISSLQPEDFATYYCQKTNSFPFTFGPGTKVEIK" unit_of_measure=nM numeric_result=0.809

I would be grateful if you could share the reported Kd for H4H2342P (antibody, human IgG4, V domains shown, human IgG4 Fc (H4H)) VH: EVQLLESGGGLVQPGGSLRLSCAASGFTFSTYAMSWVRQAPGKGLEWVSAIRGNGVNTYYGDSMKGRFTISRDNSKDTLYLQMNSLRAEDTAVYYCAKNKWELLVFEYWGQGTLVTVSS VL: DIQMTQSPSSLSASVGDRVTITCRASQDISNYLAWYQQKPGKVPKLLIYAASTLQSGVPFRFSGSGSGTDFTLTISSLQPEDVATYYCQKYNSAPPFGPGTKVDIK .
2.03
